Data origin, for the record: patent US20240158446A1

- testedSystem: GDP-bound KRAS wild-type protein (Homo sapiens, UniProt P01116)
- Sequence (P01116 whole entry): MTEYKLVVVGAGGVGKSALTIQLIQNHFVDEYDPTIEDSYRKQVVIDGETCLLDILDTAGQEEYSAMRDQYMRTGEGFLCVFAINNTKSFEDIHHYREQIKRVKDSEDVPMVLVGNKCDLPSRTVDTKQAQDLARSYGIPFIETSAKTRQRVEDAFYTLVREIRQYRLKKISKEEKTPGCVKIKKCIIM
- experimentalDetails: Binding to KRAS by surface plasmon resonance (SPR), Single Cycle Kinetics
- conditions: SPR Single Cycle Kinetics, GDP-bound KRAS wild-type protein, 1:1 binding model; read-out: KRAS KD
*1 amine or outer side, *2 acyl side, *3 side chain or, on linkers, in order; H or OH if unused. Where a SMILES comes first, the peptide text is derived from it. Bridges are numbered along the chain shown (N, C = ends). [ ]: non-standard residue; d: D form. The star is where a group is joined. hPhe(3-Cl-4-CF3) = N[C@@H](CCc1ccc(C(F)(F)F)c(Cl)c1)C(=O)O; NPrPhe(4-CF3) = CCCN[C@@H](Cc1ccc(C(F)(F)F)cc1)C(=O)O; X41 = Cc1ccc(C[C@@H](C(=O)[*:2])N(CC2CCCCC2)[*:1])cc1; NMeGly(cPent) = CN[C@H](C(=O)O)C1CCCC1; Pro(4,4-F2) = O=C(O)[C@@H]1CC(F)(F)CN1; NMeD = CN[C@@H](CC(=O)O)C(=O)O; NMeL = CN[C@@H](CC(C)C)C(=O)O; Morpholide = C1CN(*)CCO1; NMeA = CN[C@@H](C)C(=O)O; Ac5c = NC1(C(=O)O)CCCC1; Aze = O=C(O)[C@@H]1CCN1; Ac4c = NC1(C(=O)O)CCC1; Sar = CNCC(=O)O
metricName: pKd
One number for each entry, as −log10 of the molar value.

- CCCN1C(=O)[C@@H]2CCN2C(=O)CN(C)C(=O)[C@H]([C@@H](C)CC)NC(=O)[C@H](CC(C)C)N(C)C(=O)C[C@@H](C(=O)N2CCOCC2)NC(=O)[C@H](C2CCCC2)N(C)C(=O)C2(CCC2)NC(=O)[C@@H]2CC(F)(F)CN2C(=O)[C@H](CCc2ccc(C(F)(F)F)c(Cl)c2)NC(=O)CN(C)C(=O)[C@@H]1Cc1ccc(C(F)(F)F)cc1 [PP0352] ([NMeL]I[Sar][Aze][NPrPhe(4-CF3)][Sar][hPhe(3-Cl-4-CF3)][Pro(4,4-F2)][Ac4c][NMeGly(cPent)]D-Morpholide; lactam N-11): 9.09
- CC[C@H](C)[C@@H]1NC(=O)[C@H](COC)N(C)C(=O)C[C@@H](C(=O)N2CCCCC2)N(C)C(=O)[C@H](C2CCCC2)N(C)C(=O)C2(CC(C)(C)C2)NC(=O)[C@@H]2C[C@@H](OC(C)C)CN2C(=O)[C@H](CCc2cc(F)c(C(F)(F)F)c(F)c2)NC(=O)CN(C)C(=O)[C@H](Cc2ccc(C)cc2)N2CC/C=C\C[C@@H](C2=O)N(C)C(=O)CN(C)C1=O: 9.54

# next molecule below
Using the record for CC[C@H](C)[C@@H]1NC(=O)[C@H](CC(C)C)N(C)C(=O)C[C@@H](C(=O)N2CCOCC2)N(C)C(=O)[C@H](C2CCCC2)N(C)C(=O)C2(CCCC2)NC(=O)[C@@H]2CCCN2C(=O)[C@H](CCc2ccc(C(F)(F)F)c(Cl)c2)NC(=O)CN(C)C(=O)[C@H](Cc2ccc(C)cc2)N(CC2CCCCC2)C(=O)[C@@H]2CCN2C(=O)[C@H](C)N(C)C1=O [PP0085] ([NMeL]I[NMeA][Aze][X41][Sar][hPhe(3-Cl-4-CF3)]P[Ac5c][NMeGly(cPent)][NMeD]-Morpholide; lactam N-11) , state its measured pKd.
8.08
